test: total protein half-life in vivo (active degradation + dilution); higher = more stable protein; conditions: E. coli NCM3722 delta-clpP; growth: N-lim chemostat; doubling time 6 h
metric: total protein half-life in vivo (h)
Expressed in h, but write only the number.

Reported total protein half-life in vivo for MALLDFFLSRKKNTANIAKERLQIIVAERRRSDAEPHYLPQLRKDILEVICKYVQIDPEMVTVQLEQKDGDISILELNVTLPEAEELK [P0A734] was 4.57

Reported total protein half-life in vivo for "MATTHLDVCAVVPAAGFGRRMQTECPKQYLSIGNQTILEHSVHALLAHPRVKRVVIAISPGDSRFAQLPLANHPQITVVDGGDERADSVLAGLKAAGDAQWVLVHDAARPCLHQDDLARLLALSETSRTGGILAAPVRDTMKRAEPGKNAIAHTVDRNGLWHALTPQFFPRELLHDCLTRALNEGATITDEASALEYCGFHPQLVEGRADNIKVTRPEDLALAEFYLTRTIHQENT" was 5.1
